All figures here come from patent US20260256797A1.

system-tested: Tau-RD3 (Tau repeat domain 3) (Homo sapiens, UniProt P10636)
Sequence (P10636 623-653 limits assumed): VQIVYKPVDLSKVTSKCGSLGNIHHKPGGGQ
assay-details: Tau disaggregation test by thioflavin-T assay
Type: biochemical
study-conditions: 35 μM Tau-RD3 aggregated 24 hours, then compound 0-500 μM for 48 hours at 37° C.
Experimental: Each compound was dissolved in DMSO to a concentration of 10 mM. Subsequently, the compound was diluted with 6% DMSO (in DW) and used. Specifically, amyloid-beta and tau solutions were prepared by dissolving Aβ1-42 or Tau-RD3 (Tau repeat domain 3) monomer in DMSO to a concentration of 10 mM. Thereafter, each solution was diluted with DW to a concentration of 100 μM and stored on ice. Meanwhile, thioflavin-T was dissolved in 50 mM glycine buffer (pH 8.5) to a concentration of 5 mM. […]
Output yes for records whose EC50 is lower than 20 µM, no for records at or above 20 µM.

1. COc1ccc(C2=C(c3ncsc3C)c3ccc(OCOCc4ccccc4)cc3C2=O)cc1
no
2. O=C1C(c2cccnc2)=C(c2ccoc2)c2ccc(OCCOc3ccncc3)cc21
yes
3. Cc1scnc1C1=C(c2cccs2)C(=O)c2cc(OCCCCc3ccccc3)ccc21
no
4. Cc1scnc1C1=C(c2cccs2)C(=O)c2cc(OCCc3ccccc3)ccc21
no
5. COc1ccc(OCCOc2ccc3c(c2)C(=O)C(c2ccc(F)cc2)=C3c2ncsc2C)cc1
no
6. Cc1ncsc1C1=C(c2cccnc2)C(=O)c2cc(OCOCc3ccccc3)ccc21
no

Decide: EC50 of O=C1C(c2cccnc2)=C(c2ccoc2)c2ccc(OCCOc3ccccc3)cc21 strictly below 20 µM?
yes
